Biological target: cAMP-dependent protein kinase catalytic subunit PRKX (Homo sapiens);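 also: each value is the mean percent inhibition of the kinase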
Details: at 1 µM

COMPOUND	inhibition / %
COc1ccc(-c2nn3ncccc3c2-c2ccnc(Nc3cccc(C(F)(F)F)c3)n2)cc1	1.89
O=C1Nc2ccc(-c3cccnc3)cc2C1=Cc1cc(Br)c(O)c(Br)c1	-0.22
COc1cccc(-n2ncc3c(N/N=C/c4ccc(S(C)(=O)=O)cc4)ncnc32)c1	1.61
CCCN1CCCC(c2ccc(Nc3nc(Nc4cc(F)ccc4C(N)=O)c4cc[nH]c4n3)c(OC)c2)C1 (stereo not given)	0.52
c1ccc(Cc2nc3ccc(Nc4ncnc5ccccc45)cc3[nH]2)cc1	1.89
CCS(=O)(=O)c1ccc(OC)c(Nc2nccc(N(C)c3ccc4c(C)n[nH]c4c3)n2)c1	2.47
COC(=O)Nc1nc2cc(Oc3ccc(NC(=O)Nc4cccc(Br)c4)cc3)ccc2[nH]1	1.14
N#Cc1c(NC(=O)c2ccccc2F)sc2c1CCCC2	-0.83
C[C@@H](Oc1cc(-n2cnc3ccc(OCC4CCN(C)CC4)cc32)sc1C(N)=O)c1ccccc1C(F)(F)F	-1.15
Cc1cc(O)cc(C)c1/C=C/c1cncc(C(=O)N(C)C)c1	0.5
CN(c1ccc(NC(=O)Nc2ccc(OC(F)(F)F)cc2)cc1)c1ccnc(Nc2cccc(S(N)(=O)=O)c2)n1	0
NS(=O)(=O)c1cccc(-c2cc3ccncc3cc2OCc2ccccc2)c1	0.54
COc1cc2ncn(-c3cc(OCc4ccccc4S(C)(=O)=O)c(C#N)s3)c2cc1OC	2.89
FC(F)(F)c1ccc(-c2nn3ncccc3c2-c2ccnc(Nc3ccc4c(c3)OCCO4)n2)cc1	8.53
NS(=O)(=O)c1cccc(Nc2cc(-c3ccc(F)cc3)n[nH]2)c1	9.4
Cc1cc(-c2ccccn2)cc(C)c1/C=C/c1cncc(-c2nn[nH]n2)c1	2.53
COc1ccc2ncnc(Nc3ccc(OCc4ccccc4)cc3)c2c1	1.9
Cc1ccc2c(-c3ccnc(Nc4ccc5c(c4)OCCO5)n3)c(-c3ccc(C(F)(F)F)cc3)nn2n1	6.18
NS(=O)(=O)c1ccc(NC=C2C(=O)Nc3ccc4ncsc4c32)cc1	12.2
NC(=O)c1sc(-n2cnc3ccccc32)cc1OCc1ccccc1Br	5.64
